Peptide text beside a SMILES is read from it.
The entries below are paired with their reported melting point.
Write the answer as a number in °C, unit excluded.

Consider the following illustrative entries.
> print(dat)
                                   molecule  quantity.kind  recorded.measurement
1                 COc1cc(CC(=O)O)cc(OC)c1OC  melting point                   120
2                   Clc1ncccc1-c1cccc(Br)n1  melting point                   140
3                       O=Cc1ccccc1OCC(=O)O  melting point                   133
4  NCC(=O)NCC(=O)NCC(=O)NCC(=O)O (H-GGGG-OH)  melting point                   300
5                             N#CC=C(Cl)C#N  melting point                  60.5

// melting point lookup, key: CCOC(=O)C(=C(C)OC(=O)c1ccccc1)c1cc(C(C(=O)OCC)=C(C)OC(=O)c2ccccc2)c([N+](=O)[O-])cc1[N+](=O)[O-]
167

Also CC(=O)Nc1ccc(OC(=O)c2ccccc2OC(C)=O)cc1 , if possible.
175

Repeat with CCN(C)CC
-196

Moving on to the next molecule: OCCN(CCO)c1nc(N2CCCCC2)c2nc(N(CCO)CCO)nc(N3CCCCC3)c2n1
163

Try this molecule next: O=C(O)C(Br)CBr (centres undefined)
66.5

Another molecule: COc1ccc(Cl)cc1N=C=S
58

What about this molecule? O=C1C=C(NCc2ccncc2)C(=O)c2ccccc21
166

Now try N#CC1(OC(=O)c2ccccc2)Cc2ccccc21 (centres undefined) .
112

And for N#Cc1nc[nH]c1C#N ?
175

Proceed to CCN(Cc1ccncc1)C(=O)C(CO)c1ccccc1 (centres undefined)
96

---

Note: every record was labeled by where its melting point sits among bin A (below 90 °C), bin B (90 °C to below 200 °C), bin C (200 °C or more)

For orientation, consider the following solved cases.
> print(dat)
                                   compound  label.value
1  CC(=O)NCC1(c2ccccc2)CCN(CCCC(=O)c2ccc(F)cc2)CC1        bin B
2                     COC(=O)c1cc(O)nc(O)n1        bin C
3  COc1cc2c(cc1O)C(Cc1ccc(O)cc1)NCC2 (stereo unspecified)        bin C
4  CN1CCC(CN2c3ccccc3Sc3ccccc32)C1 (stereo unspecified)        bin A
5                        N#Cc1ccc(O)c(Br)c1        bin B
6                         CC(C)NC(=S)NC(C)C        bin B
7                      Cc1nn(C)c2c(N)ncnc12        bin C
8                           Nc1ncc(Br)cc1Br        bin B

Each compound maps to one class by melting point. Which class for Cc1ccc(F)cc1N ?
bin A

Consider next the compound O=[N+]([O-])c1cccc(-c2nnc3n2CN(c2ccccc2[N+](=O)[O-])CS3)c1 in the same way.
bin B

Subsequent entry: O=C(Cl)c1ccccc1
bin A

Ok, now c1cncc(-c2nc3ccccc3[nH]2)c1
bin C

Let us now turn to CN=C=O
bin A

Thanks! And Fc1cc(F)c(F)c(F)c1 ?
bin A

Can you check COc1ccc(OC2OC(CO)C(O)C(O)C2O)cc1 (stereo unspecified) next?
bin B

Okay, and Cc1nnc(-c2ccccn2)nc1C ?
bin A

// query: CC12CCC3C(CCC4=CC(=O)C=CC43C)C1CCC(=O)O2 (stereo unspecified)
bin C
